test: rotorod-ataxia toxicity test (CNS side effects); settings: mouse, in vivo
MEASURED_QUANTITY: TD50 at […] (mg/kg)
Hi! Could you send only the number? It should be in mg/kg, unit omitted.

-- ask // returns reported TD50 at […] for input NC(=O)N1c2ccccc2C=Cc2ccccc21 [carbamazepine, 5-H-dibenzepin-(5)-carboxamide]
-- reply 44.8
